Data credit: paper PMC4065339

Tested on: polD (heterodimer of polD-S and polD-L)
Construct: gene polC; E. coli T7 Express/pRIL, untagged, co-expressed plasmids pERE1 and pERF5, co-purified heterodimer; with DNA polymerase II small subunit
TEST NAME: [α-32P]-dCTP incorporation into primed M13mp18, acid precipitation
Assay type: biochemical, Thermococcus sp. 9°N
DETAILS: 10 nM enzyme, 15 nM primed M13mp18, 50 µM dNTPs, ThermoPol buffer pH 8.8 (2 mM MgSO4), 65 °C, 20 min; read-out: not inhibited by up to 0.4 mM
pIC50: −log10 of the molar value.
TEST READOUT: pIC50

Query :: Lab request: please report pIC50 under test system polD (heterodimer of polD-S and polD-L) for `C[C@@]1(CO)[C@H](O)CC[C@@]2(C)[C@H]1CC[C@H]1C[C@@H]3C[C@@]12CC[C@]3(O)CO`
Result :: < 3.40
